protocolNotes: Online brain microdialysis UHPLC-HRMS/MS pharmacokinetics of Nic and its main metabolites in rat NAc after single Nic injection
Format: in vivo
conditionLabel: rat, brain microdialysate (NAc), ip, 2 mg/kg, rat NAc; Nic 2 mg kg^-1 ip; Prodifine (proadifen) pretreated
Would you kindly list MRT for each of these molecules?
One number for each entry, in h.

These recorded examples may help you get a feel for the data.
Look at this molecule and give its reported MRT. CN1C(=O)CC[C@H]1c1cccnc1 [Cot, (−) cotinine]
3.12

Field entry: CN1CCC[C@H]1c1cccnc1 [Nic, (−) nicotine]
1.89

Continuing:
Suppose we examine the molecule C[N@+]1([O-])CCC[C@H]1c1cccnc1 [NNO, (1′S, 2′S)-nicotine-1′-oxide] ; what MRT value has been reported?
1.57

---

protocolNotes: Online brain microdialysis UHPLC-HRMS/MS pharmacokinetics of Nic and its main metabolites in rat NAc after single Nic injection
Format: in vivo
conditionLabel: rat, brain microdialysate (NAc), ip, 2 mg/kg, rat NAc; Nic 2 mg kg^-1 ip; saline-pretreated
measureName: MRT (h)
One number for each entry, in h.

Below are worked cases with known answers.
I would be grateful if you could share the reported MRT for CN1C(=O)CC[C@H]1c1cccnc1 [Cot, (−) cotinine] .
3.11

Now give it for CN1CCC[C@H]1c1cccnc1 [Nic, (−) nicotine] too.
1.43

Would you kindly look at the next entry?
GET /values?readout=MRT&item= C[N@+]1([O-])CCC[C@H]1c1cccnc1 [NNO, (1′S, 2′S)-nicotine-1′-oxide]
2.39

---

Record form. Attribute: Cmax. Fill in for each entry.
protocolNotes: Online brain microdialysis UHPLC-HRMS/MS pharmacokinetics of Nic and its main metabolites in rat NAc after single Nic injection
Assay type: in vivo
conditionLabel: rat, brain microdialysate (NAc), ip, 2 mg/kg, rat NAc; Nic 2 mg kg^-1 ip; Prodifine (proadifen) pretreated
Give bare numbers, in ng/mL.

Worked set:
Would you mind telling me what Cmax value was observed for C[N@+]1([O-])CCC[C@H]1c1cccnc1 [NNO, (1′S, 2′S)-nicotine-1′-oxide] ?
5.2

Also, CN1CCC[C@H]1c1cccnc1 [Nic, (−) nicotine] please.
1220

Here is another compound to look at.
Tell me the measured Cmax of CN1C(=O)CC[C@H]1c1cccnc1 [Cot, (−) cotinine] , please.
20.3

---

Exercise: for every item that follows, state its recorded Tmax.
protocolNotes: Online brain microdialysis UHPLC-HRMS/MS pharmacokinetics of Nic and its main metabolites in rat NAc after single Nic injection
Assay type: in vivo
conditionLabel: rat, brain microdialysate (NAc), ip, 2 mg/kg, rat NAc; Nic 2 mg kg^-1 ip; Prodifine (proadifen) pretreated
Description: To inhibit the main Nic metabolic enzyme CYP2B in the brain, rats received intraperitoneal injections of proadifen (50 mg kg^−1·day^−1, 4 d) ([Song et al., 2012]). Control animals were pretreated with saline using the same protocol. […] The CYP2B activity in different rat brain regions was determined following the instructions of the GENMED CYP2B1 activity fluorescence quantitative detection kit (GENMED SCIENTIFICS INC. U.S.A, GMS18019.1). […]
One number for each entry, in min.

Past entries and their recorded results:
Sample CN1C(=O)CC[C@H]1c1cccnc1 [Cot, (−) cotinine] — what was its Tmax?
120

// repeat for C[N@+]1([O-])CCC[C@H]1c1cccnc1 [NNO, (1′S, 2′S)-nicotine-1′-oxide] and report
40

Attention now shifts to the item below.
Form field: reported Tmax of CN1CCC[C@H]1c1cccnc1 [Nic, (−) nicotine]
30
